Where do these numbers come from? They come from patent US12653809B2.

Task for the reader: assign each of the following molecules its reported IC50.
# TGT: Cbl-b (truncated variant, UniProt number Q13191) (Homo sapiens, UniProt Q13191)
# Construct: made in house
# Sequence (Q13191 36-427): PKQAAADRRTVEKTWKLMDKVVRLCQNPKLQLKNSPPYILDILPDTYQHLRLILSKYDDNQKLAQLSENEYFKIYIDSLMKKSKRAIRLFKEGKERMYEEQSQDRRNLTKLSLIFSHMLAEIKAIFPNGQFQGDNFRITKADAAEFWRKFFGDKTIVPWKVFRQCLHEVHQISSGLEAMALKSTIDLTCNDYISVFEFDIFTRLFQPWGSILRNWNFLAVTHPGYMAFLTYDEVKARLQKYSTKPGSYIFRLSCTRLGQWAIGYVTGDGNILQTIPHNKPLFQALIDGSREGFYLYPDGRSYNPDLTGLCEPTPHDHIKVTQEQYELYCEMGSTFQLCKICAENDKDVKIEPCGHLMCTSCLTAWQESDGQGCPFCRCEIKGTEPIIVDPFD
# ASSAY PROTOCOL: Cbl-b activity assay (TR-FRET, interaction of Cbl-b with UbcH5B-Ub)
# Assay type: biochemical
# MEASUREMENT CONTEXT: Biological Example 1A; low or high conditions not stated; read-out: IC50 values in the Cbl-b inhibition assay of Biological Example 1A

Quick one: give me IC50 for each item below, same order please.
1. CNC(=O)c1cccc(-c2cnn(-c3cccc([C@H](C)Sc4nncn4C)c3)n2)c1
2. C[C@@H](Sc1nncn1C)c1cccc(-c2cc(-c3ccccc3)n[nH]2)c1
3. C[C@@H](Sc1nncn1C)c1cccc(-c2n[nH]c3ccccc23)c1
4. C[C@H](Sc1nncn1C)c1cccc(-c2cc(-c3ccccc3)n[nH]2)c1

Result block:
1. 1 to 5 µM
2. ≥ 5 µM
3. 1 to 5 µM
4. 0.1 to 1 µM

Quick one: give me IC50 for each item below, same order please.
1. C[C@H](Sc1nncn1C)c1cccc(-c2cc(-c3ccc(C(=O)O)cc3)no2)c1
2. C[C@H](Sc1nncn1C)c1cccc(-c2cc(-c3ccc(S(C)(=O)=O)cc3)no2)c1

Result block:
["≥ 5 µM", "≥ 5 µM"]
